Every entry's value here was drawn from the METLIN SMRT retention time set (Domingo-Almenara et al. 2019).

# protocol notes: gradient 5% acetonitrile 3 min, to 50% in 2 min, to 85% in 15 min, held 3 min, 100 µL/min
# assay conditions: column: Zorbax Extend-C18 2.1 x 50 mm; eluents: water / acetonitrile, 0.1% formic acid
Measured RP-LC retention time, listed per entry for reference.
Answer with a number only, understood to be in s.

COc1ccc(NC(=O)C2c3cc(OC)c(OC)cc3C(=O)N(C)C2c2cccs2)cc1OC (centres undefined)	744
O=C(CN1CCc2ccccc2C1C(=O)N1CCCCC1)NCc1ccc(F)cc1Cl (centres undefined)	918

input: Report RP-LC retention time for CCc1ccc(NC(=O)c2c(C)sc3ncnc(N4CCCC4)c23)cc1 please.
output: 975

input: Report RP-LC retention time for COc1cccc(CNC(=O)CN2CCN(Cc3ccc(F)cc3)C2=O)c1 please.
output: 769

input: Report RP-LC retention time for CCCN(CC1CCOC1)C(=O)Nc1ccc2c(c1)OCCO2 (centres undefined) please.
output: 732

input: Report RP-LC retention time for O=C(CC(=O)N1CCN(c2ccccc2)CC1)Nc1ccc2nc3n(c(=O)c2c1)CCCCC3 please.
output: 720

input: Report RP-LC retention time for CCC(=O)N1CCc2ccccc2C1C(=O)NCc1ccc2c(c1)OCO2 (centres undefined) please.
output: 761

input: Report RP-LC retention time for Cc1cc(C)cc(NC(=O)Cn2nc(N3CCOCC3)c3ccccc3c2=O)c1 please.
output: 840

input: Report RP-LC retention time for O=C(NCC1CCCO1)C1COC2(CCN(C(=O)C3CC3)CC2)N1C(=O)c1ccccc1 (centres undefined) please.
output: 608
